Target: Human recombinant MMP-2 (Homo sapiens, UniProt P08253)
Construct: made in house; host or cells: MMP-2-transfected p2AHT2 cells
Sequence (P08253 110-660): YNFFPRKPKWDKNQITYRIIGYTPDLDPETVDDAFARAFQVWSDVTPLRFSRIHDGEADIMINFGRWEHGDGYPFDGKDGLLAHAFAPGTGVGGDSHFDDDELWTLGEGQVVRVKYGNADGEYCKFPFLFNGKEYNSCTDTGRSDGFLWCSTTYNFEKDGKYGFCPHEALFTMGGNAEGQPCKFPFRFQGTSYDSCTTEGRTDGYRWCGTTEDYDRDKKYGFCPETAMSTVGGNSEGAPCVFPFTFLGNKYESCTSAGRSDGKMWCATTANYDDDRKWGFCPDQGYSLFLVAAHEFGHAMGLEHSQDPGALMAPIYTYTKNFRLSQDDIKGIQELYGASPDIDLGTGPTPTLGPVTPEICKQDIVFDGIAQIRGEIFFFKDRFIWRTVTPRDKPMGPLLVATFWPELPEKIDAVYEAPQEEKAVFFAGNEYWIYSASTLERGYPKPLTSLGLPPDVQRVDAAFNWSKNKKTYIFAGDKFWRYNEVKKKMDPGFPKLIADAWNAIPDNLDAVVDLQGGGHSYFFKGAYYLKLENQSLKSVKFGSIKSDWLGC
Assay: In vitro MMP inhibition, IC50 determination (fluorogenic substrate I)
Assay type: biochemical
Conditions: value outside parentheses (Ki in parenthesis)
pIC50: −log10 of the molar value.
readoutLabel: pIC50

a. COc1cc(COCCCOc2ccc(S(=O)(=O)C3(C(=O)NO)CCOCC3)cc2)cc(OC)c1
b. O=C(NO)C1(S(=O)(=O)c2ccc(OCCCS(=O)(=O)N3CCc4ccccc4C3)cc2)CCOCC1
c. N#Cc1ccc(C(=O)NCCCOc2ccc(S(=O)(=O)C3(C(=O)NO)CCOCC3)cc2)cc1
d. CCCCOCCCNc1ccc(S(=O)(=O)C2(C(=O)NO)CCOCC2)cc1
IN: Rank descending by pIC50: all 4 compounds from above. # the answer lists labels in the order requested
OUT: b, a, c, d
(b: 8.44, a: 7.89, c: 7.08, d: 6.84)

====

Target: Human recombinant MMP-9 (Homo sapiens)
Construct: made in house; host or cells: MMP-9-transfected HT1080 cells (spent media)
Sequence (P14780 107-707 limits assumed): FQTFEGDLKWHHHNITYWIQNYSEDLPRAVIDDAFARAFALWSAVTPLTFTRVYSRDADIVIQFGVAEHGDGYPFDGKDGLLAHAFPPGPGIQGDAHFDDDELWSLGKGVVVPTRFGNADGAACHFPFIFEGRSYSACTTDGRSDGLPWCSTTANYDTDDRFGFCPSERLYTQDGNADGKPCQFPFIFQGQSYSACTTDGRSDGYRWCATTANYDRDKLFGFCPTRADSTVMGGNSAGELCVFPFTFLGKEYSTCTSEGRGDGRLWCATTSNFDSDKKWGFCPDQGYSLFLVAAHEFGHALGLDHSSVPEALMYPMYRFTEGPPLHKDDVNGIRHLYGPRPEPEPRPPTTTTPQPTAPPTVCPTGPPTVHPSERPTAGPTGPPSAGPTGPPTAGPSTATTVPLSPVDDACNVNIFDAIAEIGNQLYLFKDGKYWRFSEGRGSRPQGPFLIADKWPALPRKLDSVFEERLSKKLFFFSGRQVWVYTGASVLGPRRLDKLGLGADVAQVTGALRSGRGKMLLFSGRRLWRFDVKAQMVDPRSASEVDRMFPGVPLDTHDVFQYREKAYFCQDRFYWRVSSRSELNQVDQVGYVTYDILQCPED
Experiment: In vitro MMP inhibition, IC50 determination (fluorogenic substrate I)
Type: biochemical
Conditions: value outside parenthesis
pIC50: −log10 of the molar value.
readoutLabel: pIC50

Example compounds with recorded pIC50:
>  <smilesEntry>
CCOc1ccc(-c2noc(CCCOc3ccc(S(=O)(=O)C4(C(=O)NO)CCN(C5CC5)CC4)cc3)n2)cc1

>  <recordedValue>
6.17

$$$$
>  <smilesEntry>
COCCN1CCC(C(=O)NO)(S(=O)(=O)c2ccc(OCCCc3nc(-c4ccc(OC(F)(F)F)cc4)no3)cc2)CC1

>  <recordedValue>
5.76

$$$$

I. Cc1cc(C(=O)CCCCOc2ccc(S(=O)(=O)C3(C(=O)NO)CCN(C4CC4)CC3)cc2)ccc1OC(C)C
II. O=C(CCCOc1ccc(S(=O)(=O)C2(C(=O)NO)CCOCC2)cc1)NNC(=O)c1ccc(Cl)cc1
III. CCOc1ccc2nc(SCCCOc3ccc(S(=O)(=O)C4(C(=O)NO)CCOCC4)cc3)sc2c1
IV. CN(C(=O)CCCOc1ccc(S(=O)(=O)C2(C(=O)NO)CCOCC2)cc1)c1ccc(OC(F)(F)F)cc1
V. COc1ccc(CCCCc2ccc(S(=O)(=O)C3(C(=O)NO)CCOCC3)cc2)cc1
IN: Provide the items ranked by increasing pIC50. # answer = labels listed in requested order
OUT: IV, I, II, V, III
(IV: 5.44, I: 6.01, II: 6.82, V: 7.42, III: 7.79)

The measured values listed here are drawn from patent US20040024024A1.
